In this section we review reported fold difference in affinity in comparison to original values for a set of binders.
# target.system: binding partner of C5A (XPA23)
# experiment: Biacore, mutant vs original C5A (XPA23)
Write it as a number; the unit fold goes unstated.

Some solved entries appear below for comparison.
binder	numeric.result
C5A (XPA23) light chain variable region P95A (antibody, V domains shown) VH: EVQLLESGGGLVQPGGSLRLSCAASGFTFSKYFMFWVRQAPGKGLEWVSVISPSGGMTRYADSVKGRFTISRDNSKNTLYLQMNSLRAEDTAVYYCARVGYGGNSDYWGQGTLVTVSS VL: DIQMTQSPSSVSASVGDRLTIICRASQDINRWLAWYQQTPGNAPKLLIHSATSLQSGVPSRFSGSGSGTDFTLTINSLQPEDFATYYCQQADSFALTFGGGTKVEIK	3.83
C5A (XPA23) light chain variable region S53V (antibody, V domains shown) VH: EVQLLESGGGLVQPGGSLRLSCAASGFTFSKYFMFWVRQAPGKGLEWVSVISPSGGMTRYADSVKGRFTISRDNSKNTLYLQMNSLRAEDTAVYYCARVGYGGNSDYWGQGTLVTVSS VL: DIQMTQSPSSVSASVGDRLTIICRASQDINRWLAWYQQTPGNAPKLLIHSATVLQSGVPSRFSGSGSGTDFTLTINSLQPEDFATYYCQQADSFPLTFGGGTKVEIK	1.42
C5A (XPA23) light chain variable region S53I (antibody, V domains shown) VH: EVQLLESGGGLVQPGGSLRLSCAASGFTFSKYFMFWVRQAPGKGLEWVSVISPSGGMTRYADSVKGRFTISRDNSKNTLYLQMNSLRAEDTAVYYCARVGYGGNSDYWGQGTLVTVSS VL: DIQMTQSPSSVSASVGDRLTIICRASQDINRWLAWYQQTPGNAPKLLIHSATILQSGVPSRFSGSGSGTDFTLTINSLQPEDFATYYCQQADSFPLTFGGGTKVEIK	1.42

Enquiry: // returns reported fold difference in affinity in comparison to original for input C5A (XPA23) light chain variable region S93I (antibody, V domains shown) VH: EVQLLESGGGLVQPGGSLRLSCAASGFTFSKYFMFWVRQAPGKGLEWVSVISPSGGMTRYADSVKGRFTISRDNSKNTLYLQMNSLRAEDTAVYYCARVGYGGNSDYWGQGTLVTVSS VL: DIQMTQSPSSVSASVGDRLTIICRASQDINRWLAWYQQTPGNAPKLLIHSATSLQSGVPSRFSGSGSGTDFTLTINSLQPEDFATYYCQQADIFPLTFGGGTKVEIK
Return: 1.35
